Test system: A549
Test: Antiproliferative activity against human A549 cells by SRB assay
Type: functional, cell-based
measured_metric: IC50

Example compounds with recorded IC50:
COc1cc(NC(=O)c2cc(-c3ccccc3)nc3ccc(Cl)cc23)cc(OC)c1OC	> 50 µM
O=C(NC(Cc1ccccc1)C(=O)OCc1ccccc1)c1cc(-c2ccccc2)nc2ccccc12 (stereo not drawn)	> 50 µM
CCOc1ccc(NC(=O)c2cc(-c3ccccc3)nc3ccccc23)cc1	> 50 µM
COc1ccc(NC(=O)c2cc(-c3ccc(C)cc3)nc3ccc(C)cc23)c(C)c1	30.1 µM

Request: May I ask what IC50 has been recorded for CSc1cccc(NC(=O)c2cc(-c3ccccc3)nc3ccccc23)c1 ?
Response: > 50 µM

Request: May I ask what IC50 has been recorded for COc1cc(OC)c(NC(=O)c2cc(-c3ccccc3)nc3ccccc23)cc1Cl ?
Response: > 50 µM

Request: May I ask what IC50 has been recorded for COc1ccc(NC(=O)c2cc(-c3ccccc3)nc3ccccc23)cc1 ?
Response: 20.5 µM

Request: May I ask what IC50 has been recorded for C=CCNC(=S)NC(=O)c1cc(-c2ccccc2)nc2ccccc12 ?
Response: > 50 µM
